Below: a set of entries, each annotated with reported Kd.
# Target Or System: CAII (Homo sapiens, UniProt P00918)
# Construct: made in house; host or cells: E. coli
# Experiment: biochemical
# Assay type: binding
# Test Context: FTSA, pH 7.0, 37 °C; read-out: Observed Dissociation Constant (Kd_obs), CAII
Test Readout: Kd (nM)

Compound: COc1ccc(C=NNC(=O)CC(CNc2ccc(S(N)(=O)=O)cc2)C(=O)NN=Cc2ccc(OC)cc2)cc1 (stereo not shown) [Compound 14a]
Target Or System: CAII (Homo sapiens, UniProt P00918)
Observed Value: 3400
--
Compound: NS(=O)(=O)c1ccc(NCC(CC(=O)NN=Cc2ccccc2[N+](=O)[O-])C(=O)NN=Cc2ccccc2[N+](=O)[O-])cc1 (stereo not shown) [Compound 15a]
Target Or System: CAII (Homo sapiens, UniProt P00918)
Observed Value: 3300
--
Compound: CCOC(=O)c1sc(N(CCC(=O)O)c2ccc(S(N)(=O)=O)cc2)nc1C
Target Or System: CAII (Homo sapiens, UniProt P00918)
Observed Value: 910
--
Compound: NS(=O)(=O)c1ccc(NCC(CC(=O)NN=Cc2cccc([N+](=O)[O-])c2)C(=O)NN=Cc2cccc([N+](=O)[O-])c2)c(Cl)c1 (stereo not shown) [Compound 16b]
Target Or System: CAII (Homo sapiens, UniProt P00918)
Observed Value: 500
--
Compound: Cc1ccc(C)n1NC(=O)CC(CNc1ccc(S(N)(=O)=O)cc1)C(=O)Nn1c(C)ccc1C (stereo not shown) [Compound 19a]
Target Or System: CAII (Homo sapiens, UniProt P00918)
Observed Value: 1700
--
Compound: NS(=O)(=O)c1ccc(NCC(CC(=O)NN=Cc2ccc(F)cc2)C(=O)NN=Cc2ccc(F)cc2)c(Cl)c1 (stereo not shown) [Compound 13b]
Target Or System: CAII (Homo sapiens, UniProt P00918)
Observed Value: 390
--
Compound: CC(C)=NNC(=O)CC(CNc1ccc(S(N)(=O)=O)cc1Cl)C(=O)NN=C(C)C (stereo not shown)
Target Or System: CAII (Homo sapiens, UniProt P00918);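 note: recombinant human CAII, thermal shift with ANS dye fluorescence, Kd_obs from fitting melting temperature versus ligand concentration, intrinsic values corrected for deprotonated sulfonamide and Zn-bound water fractions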
Observed Value: 1800
